Quick reference: MIC of the listed items.
- Tested on: Aspergillus niger
- assay-info: Antimicrobial activity against Aspergillus niger assessed as growth inhibition by microdilution method
- Format: functional

query-smiles: Cc1ccc(NC2=NN=Cc3cc4ccc(Cl)c(C)c4nc3S2)c(C)c1
MIC: 500 µg/mL
--
query-smiles: Cc1cccc2cc3c(nc12)SC(Nc1ccc(Cl)cc1)=NN=C3
MIC: 1000 µg/mL
--
query-smiles: COc1ccc2nc3c(cc2c1)C=NN=C(Nc1ccc(F)cc1)S3
MIC: 1000 µg/mL
--
query-smiles: Cc1ccccc1NC1=NN=Cc2cc3cccc(C)c3nc2S1
MIC: 500 µg/mL
--
query-smiles: Cc1c(Cl)ccc2cc3c(nc12)SC(Nc1ccccc1Cl)=NN=C3
MIC: 500 µg/mL
--
query-smiles: Cc1cccc2cc3c(nc12)SC(NCCN1CCOCC1)=NN=C3
MIC: 500 µg/mL
--
query-smiles: Cc1cccc(C)c1NC1=NN=Cc2cc3ccc(Cl)c(C)c3nc2S1
MIC: 500 µg/mL
--
query-smiles: Cc1c(Cl)ccc2cc3c(nc12)SC(Nc1ccccc1)=NN=C3
MIC: 1000 µg/mL
--
query-smiles: Cc1ccc2nc3c(cc2c1)C=NN=C(Nc1ccccc1Cl)S3
MIC: > 1000 µg/mL
--
query-smiles: Cc1ccc(NC2=NN=Cc3cc4cccc(C)c4nc3S2)c(C)c1
MIC: 1000 µg/mL
--
query-smiles: Cc1cccc(C)c1NC1=NN=Cc2cc3cccc(C)c3nc2S1
MIC: 1000 µg/mL

* * *

Quick reference: MIC of the listed items.
- Test system: Aspergillus niger
- assay-info: Antimicrobial activity against Aspergillus niger assessed as growth inhibition by microdilution method
- Assay type: functional

query-smiles: Cc1ccc(NC2=NN=Cc3cc4ccc(Cl)c(C)c4nc3S2)cc1
MIC (µg/mL): 1000

query-smiles: Cc1cccc2cc3c(nc12)SC(NCc1ccccc1)=NN=C3
MIC (µg/mL): 500

query-smiles: COc1ccc2nc3c(cc2c1)C=NN=C(Nc1c(C)cccc1C)S3
MIC (µg/mL): 1000

query-smiles: Cc1ccc2nc3c(cc2c1)C=NN=C(Nc1cccc(Cl)c1)S3
MIC (µg/mL): 1000

query-smiles: Cc1cccc2cc3c(nc12)SC(Nc1cccc(Cl)c1)=NN=C3
MIC (µg/mL): 500

query-smiles: COc1ccc2nc3c(cc2c1)C=NN=C(Nc1ccccc1Cl)S3
MIC (µg/mL): 500

query-smiles: Cc1ccc2nc3c(cc2c1)C=NN=C(NCCN1CCOCC1)S3
MIC (µg/mL): 500

query-smiles: CCc1ccc(NC2=NN=Cc3cc4cc(C)ccc4nc3S2)cc1
MIC (µg/mL): 500

query-smiles: Cc1ccc2nc3c(cc2c1)C=NN=C(Nc1cccc(F)c1)S3
MIC (µg/mL): 1000

query-smiles: Cc1ccc(NC2=NN=Cc3cc4cc(C)ccc4nc3S2)cc1
MIC (µg/mL): 1000

query-smiles: Cc1ccc(NC2=NN=Cc3cc4cc(C)ccc4nc3S2)c(C)c1
MIC (µg/mL): 1000

* * *

- System: Alternaria alternata
- assay-info: Antimicrobial activity against Alternaria alternata assessed as growth inhibition by microdilution method
- Type: functional
measured-metric: MIC (µg/mL)

query-smiles: Cc1cccc2cc3c(nc12)SC(Nc1ccccc1F)=NN=C3
measured-metric: MIC
unit-abbreviation: µg/mL
numeric-readout: 1000
//
query-smiles: Cc1cccc2cc3c(nc12)SC(Nc1cccc(Cl)c1)=NN=C3
measured-metric: MIC
unit-abbreviation: µg/mL
numeric-readout: 500
//
query-smiles: COc1ccc2nc3c(cc2c1)C=NN=C(NCCN1CCOCC1)S3
measured-metric: MIC
unit-abbreviation: µg/mL
numeric-readout: 1000
//
query-smiles: Cc1c(Cl)ccc2cc3c(nc12)SC(Nc1ccccc1F)=NN=C3
measured-metric: MIC
unit-abbreviation: µg/mL
numeric-readout: 500
